# experiment: Half life in mouse liver microsomes at 1 uM by LC-MS/MS analysis
# Type: ADME, Microsome
# experimental-parameters: liver microsomes
test-readout: half-life at 1 µM

> print(dat)
                                   compound  data.value
1  CC1CCCCC1NC(=O)NCCOc1nnc(C2CC2)n1-c1ccccc1 (configuration not stated)       3 min
2         O=C(CCCCCc1ccccc1)NC1CCC(F)(F)CC1     2.8 min

----------
# experiment: Drug level in CD1 mouse brain at 10 mg/kg, iv after 1 hr by LC-MS/MS analysis
# Type: ADME, organism-based
# experimental-parameters: read-out: Drug uptake
Catalogue of concentration at 1 h readings, one per entry.
test-readout: concentration at 1 h

> print(dat)
                                   compound  data.value
1  O=C(NCCCCc1ccccc1)NC1CCC(O)CC1 (configuration not stated)  < 120 ng/g
2  CC1CC(O)CCC1NC(=O)NCCCCc1ccccc1 (configuration not stated)   < 30 ng/g
